test: protein stability index of a GFP-peptide fusion (yeast GPS) (PSI 1-4); higher = more stable; sorted into four equal gates, so the index is relative within each strain; settings: san1∆
Classification field: Y = protein stability index at or over 3; N = protein stability index under 3.

Example entries begin here.
KKLKPIVAKYDPPIIIF [PRP28]; N
CGGINDSIPYPQIVKLF [ECM29]; N
VPHYNRLDSYKVIEQPI [RPL25]; N
RLECVKCKTRAQLTLKR [RPL42A]; N
MSTKAQNPMRDLKIEKL [RPL11B]; Y
IAKTFTVDVSSPTENGV [RPL22A]; N
TKQRLDAYYDLELRNSV [PRP8]; N
VANSPNKRLDVIDGKLP [YDL088C/ASM4]; N
PGFQLPNRITLTDHRKE [SRB8]; Y
KAKSVVNDVEELGEIID [RMP1]; N

Prompt: Test whether the sequence KMYDYEEKEESNLAATK [RPN11] records protein stability index of 3 or higher.
Response: N

Prompt: Test whether the sequence VNISAVDNTTEQSNSRK [YCG1] records protein stability index of 3 or higher.
Response: Y

Prompt: Test whether the sequence NRLLPNLPEEERKQIHE [GRR1] records protein stability index of 3 or higher.
Response: N
